So I've got pIC50 readings for Jarid1A (Homo sapiens (Human)), take a look.
pIC50: −log10 of the molar value.

# input # pIC50 lookup, item CN(CCn1cnc(-c2cc(C(=O)O)ccn2)c1)CC1CC1 [Example 59]
# output ≥ 7.00

# input # pIC50 lookup, item CN1CCCC(Cn2cnc(-c3cc(C(=O)O)ccn3)c2)C1 (centres unmarked) [Example 55]
# output ≥ 7.00

# input # pIC50 lookup, item O=C(O)c1ccnc(-c2cn(CCc3ccccc3F)cn2)c1 [Example 93]
# output ≥ 7.00

# input # pIC50 lookup, item O=C(O)c1ccnc(-c2cn(CC3CCCc4ccccc43)cn2)c1 (centres unmarked) [Example 116]
# output ≥ 7.00

# input # pIC50 lookup, item CC(C)C(c1ccccc1)n1cnc(-c2cc(-c3nn[nH]n3)ccn2)c1 (centres unmarked) [Example 145]
# output 6.00 to 7.00

----------
So I've got IC50 readings for FBXL10 (Homo sapiens (Human), UniProt Q8NHM5), take a look.

# input # IC50 lookup, item `O=C(O)c1ccnc(-c2cn(CCNCc3ccccc3Cl)cn2)c1`
# output ≤ 100 nM

# input # IC50 lookup, item `Cn1cnc(-c2cc(-c3nn[nH]n3)ccn2)c1-c1ccc(F)c(C(=O)Nc2ccccc2)c1`
# output 100 to 1000 nM

# input # IC50 lookup, item `O=C(O)c1ccnc(-c2cn(CCN3CCCc4ccccc43)cn2)c1`
# output ≤ 100 nM

# input # IC50 lookup, item `O=C(O)c1ccnc(-c2cn(CCN3Cc4cccc(Cl)c4C3)cn2)c1`
# output ≤ 100 nM

# input # IC50 lookup, item `O=C(O)c1ccnc(-c2cn(CCN3CCCC3)cn2)c1`
# output 1000 to 10000 nM

----------
pIC50: −log10 of the molar value.
So I've got pIC50 readings for Jarid1A (Homo sapiens (Human), UniProt P29375), take a look.

# input # pIC50 lookup, item `O=C(O)c1ccnc(-c2cn(CCn3cccn3)cn2)c1`
# output 6.00 to 7.00

# input # pIC50 lookup, item `O=C(O)c1ccnc(-c2cn(CCc3ccccc3Cl)cn2)c1`
# output ≥ 7.00

# input # pIC50 lookup, item `COc1ccccc1CCn1cnc(-c2cc(C(=O)O)ccn2)c1`
# output ≥ 7.00

# input # pIC50 lookup, item `Cn1cnc(-c2cc(-c3nn[nH]n3)ccn2)c1-c1ccc(F)cc1OCC1CC1`
# output 6.00 to 7.00

# input # pIC50 lookup, item `O=C(O)c1ccnc(-c2cn(Cc3cccc(F)c3)cn2)c1`
# output ≥ 7.00

# input # pIC50 lookup, item `CC(C)(Cn1cnc(-c2cc(C(=O)O)ccn2)c1)c1ccccc1Cl`
# output ≥ 7.00

# input # pIC50 lookup, item `O=C(O)c1ccnc(-c2cn(CCN3CCc4cc(F)ccc43)cn2)c1`
# output ≥ 7.00

# input # pIC50 lookup, item `Cn1cnc(-c2cc(C(=O)O)ccn2)c1-c1ccc(OCC2CC2)cc1`
# output ≥ 7.00

# input # pIC50 lookup, item `O=C(O)c1ccnc(-c2cn(CCN3Cc4cccc(Cl)c4C3)cn2)c1`
# output ≥ 7.00

----------
Could you please report measured IC50 for the items listed next?
Biological target: JMJD2A (Homo sapiens (Human), UniProt O75164)
Sequence (O75164 1-350): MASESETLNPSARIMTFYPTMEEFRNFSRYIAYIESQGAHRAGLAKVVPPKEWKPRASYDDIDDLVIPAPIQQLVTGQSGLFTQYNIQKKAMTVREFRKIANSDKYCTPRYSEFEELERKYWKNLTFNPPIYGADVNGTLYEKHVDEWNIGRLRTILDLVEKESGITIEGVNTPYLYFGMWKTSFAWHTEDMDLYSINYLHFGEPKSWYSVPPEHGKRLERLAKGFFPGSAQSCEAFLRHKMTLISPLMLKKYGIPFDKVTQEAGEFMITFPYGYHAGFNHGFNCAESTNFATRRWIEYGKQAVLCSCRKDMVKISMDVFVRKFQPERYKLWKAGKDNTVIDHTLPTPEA

# input # IC50 lookup, item CN(CCn1cnc(-c2cc(C(=O)O)ccn2)c1)Cc1ccc(C(F)(F)F)cc1 [Example 68]
# output ≤ 0.1 µM

# input # IC50 lookup, item O=C(O)c1ccnc(-c2cn(CC3CCCc4ccccc43)cn2)c1 (stereo not drawn) [Example 116]
# output ≤ 0.1 µM

# input # IC50 lookup, item Cn1cnc(-c2cc(-c3nn[nH]n3)ccn2)c1-c1ccc(F)cc1OCC1CC1 [Example 150]
# output > 10 µM

# input # IC50 lookup, item Cn1cnc(-c2cc(C(=O)O)ccn2)c1 [Example 1]
# output ≤ 0.1 µM

# input # IC50 lookup, item Clc1ccccc1Cn1cnc(-c2cc(-c3nn[nH]n3)ccn2)c1 [Example 129]
# output > 10 µM

# input # IC50 lookup, item CC(c1ccccc1)n1cnc(-c2cc(C(=O)O)ccn2)c1 (stereo not drawn) [Example 103]
# output ≤ 0.1 µM

# input # IC50 lookup, item CN1CCC(Cn2cnc(-c3cc(C(=O)O)ccn3)c2)CC1 [Example 50]
# output ≤ 0.1 µM

# input # IC50 lookup, item O=C(O)c1ccnc(-c2cn(CCN3CCCc4cc(Cl)ccc43)cn2)c1 [Example 89]
# output 0.1 to 1 µM

# input # IC50 lookup, item CN(CCn1cnc(-c2cc(C(=O)O)ccn2)c1)Cc1cccc(F)c1 [Example 69]
# output ≤ 0.1 µM

----------
Could you please report measured IC50 for the items listed next?

# input Request - read-out IC50 | tested on UniProt Q9H3R0 | compound O=C(O)c1ccnc(-c2cn(CCNCC3CCC(F)(F)CC3)cn2)c1 [Example 72]
# output ≤ 0.1 µM

# input Request - read-out IC50 | tested on UniProt Q9H3R0 | compound O=C(O)c1ccnc(-c2cn(Cc3ccccc3)cn2)c1 [Example 100]
# output 0.1 to 1 µM

# input Request - read-out IC50 | tested on UniProt Q9H3R0 | compound O=C(O)c1ccnc(-c2cn(CCN3Cc4ccc(Cl)cc4C3)cn2)c1 [Example 82]
# output ≤ 0.1 µM

# input Request - read-out IC50 | tested on UniProt Q9H3R0 | compound CC(C)(Cn1cnc(-c2cc(C(=O)O)ccn2)c1)c1ccccc1Cl [Example 105]
# output 1 to 10 µM

# input Request - read-out IC50 | tested on UniProt Q9H3R0 | compound COCC1(c2ccc(-c3c(-c4cc(C(=O)O)ccn4)ncn3C)cc2)CC1 [Example 25]
# output 1 to 10 µM

----------
Could you please report measured IC50 for the items listed next?
Target: JMJD2C (Homo sapiens (Human))
Sequence (Q9H3R0 2-372): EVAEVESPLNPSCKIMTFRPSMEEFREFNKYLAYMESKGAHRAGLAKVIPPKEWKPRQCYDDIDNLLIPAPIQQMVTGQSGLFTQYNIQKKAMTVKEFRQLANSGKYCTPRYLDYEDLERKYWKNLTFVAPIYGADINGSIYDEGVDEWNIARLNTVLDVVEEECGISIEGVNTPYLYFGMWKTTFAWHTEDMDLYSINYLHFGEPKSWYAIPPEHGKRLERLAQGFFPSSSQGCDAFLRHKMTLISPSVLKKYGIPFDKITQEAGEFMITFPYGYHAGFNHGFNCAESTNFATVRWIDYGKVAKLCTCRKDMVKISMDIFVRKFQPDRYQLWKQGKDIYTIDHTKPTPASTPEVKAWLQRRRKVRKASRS

# input # IC50 lookup, item CN(CCn1cnc(-c2cc(C(=O)O)ccn2)c1)Cc1ccc(C(F)(F)F)cc1 [Example 68]
# output ≤ 100 nM

# input # IC50 lookup, item Clc1ccc(Cn2cnc(-c3cc(-c4nn[nH]n4)ccn3)c2)cc1 [Example 131]
# output 1000 to 10000 nM

# input # IC50 lookup, item FC(F)(F)COc1ccccc1Cn1cnc(-c2cc(-c3nn[nH]n3)ccn2)c1 [Example 152]
# output 1000 to 10000 nM

# input # IC50 lookup, item O=C(O)c1ccnc(-c2ncn(Cc3ccccc3Cl)c2-c2ccc(F)cc2)c1 [Example 127]
# output 1000 to 10000 nM

# input # IC50 lookup, item c1cc(-c2nn[nH]n2)cc(-c2cn(CCN3CCCC3)cn2)n1 [Example 63]
# output 100 to 1000 nM

# input # IC50 lookup, item Cn1cnc(-c2cc(C(=O)O)ccn2)c1Br [Example 2]
# output 100 to 1000 nM

# input # IC50 lookup, item O=C(O)c1ccnc(-c2cn(CCc3ccccc3C(F)(F)F)cn2)c1 [Example 98]
# output ≤ 100 nM

# input # IC50 lookup, item Cn1cnc(-c2cc(C(=O)O)ccn2)c1-c1ccc(Cl)cc1C(F)(F)F [Example 27]
# output 1000 to 10000 nM

# input # IC50 lookup, item Cn1cnc(-c2cc(-c3nn[nH]n3)ccn2)c1-c1ccc(F)c(C(=O)NCc2ccccc2)c1 [Example 65]
# output 1000 to 10000 nM

# input # IC50 lookup, item CCCCOc1cc(F)ccc1-c1c(-c2cc(-c3nn[nH]n3)ccn2)ncn1C [Example 149]
# output 1000 to 10000 nM

# input # IC50 lookup, item O=C(O)c1ccnc(-c2cn(CCN3Cc4cccc(Cl)c4C3)cn2)c1 [Example 81]
# output ≤ 100 nM

# input # IC50 lookup, item CC(c1ccccc1)n1cnc(-c2cc(C(=O)O)ccn2)c1 (stereo not shown) [Example 103]
# output ≤ 100 nM

# input # IC50 lookup, item O=C(O)c1ccnc(-c2cn(Cc3cccc(-c4ccccc4)c3)cn2)c1 [Example 111]
# output 1000 to 10000 nM

# input # IC50 lookup, item O=C(O)c1ccnc(-c2cn(CCNCc3ccccc3Cl)cn2)c1 [Example 78]
# output ≤ 100 nM

# input # IC50 lookup, item CC(=O)OCn1nnc(-c2ccnc(-c3ncn(Cc4ccccc4Cl)c3-c3ccc(F)cc3)c2)n1 [Example 138]
# output 1000 to 10000 nM

# input # IC50 lookup, item O=C(O)c1ccnc(-c2cn(CCN3Cc4ccccc4C3)cn2)c1 [Example 76]
# output ≤ 100 nM

# input # IC50 lookup, item CN(C)CCn1cnc(-c2cc(C(=O)O)ccn2)c1 [Example 40]
# output ≤ 100 nM

# input # IC50 lookup, item CC(C)(C)C(=O)OCn1nnc(-c2ccnc(-c3cn(Cc4ccccc4Cl)cn3)c2)n1 [Example 166]
# output 1000 to 10000 nM

# input # IC50 lookup, item O=C(O)c1ccnc(-c2cn(CCc3ccccc3F)cn2)c1 [Example 93]
# output ≤ 100 nM

# input # IC50 lookup, item O=C(O)c1ccnc(-c2cn(CCNCc3ccc(F)cc3)cn2)c1 [Example 74]
# output ≤ 100 nM

# input # IC50 lookup, item CCN(CCn1cnc(-c2cc(C(=O)O)ccn2)c1)Cc1ccc(F)cc1 [Example 70]
# output ≤ 100 nM

# input # IC50 lookup, item CN1CCC(n2cnc(-c3cc(C(=O)O)ccn3)c2)CC1 [Example 49]
# output ≤ 100 nM

# input # IC50 lookup, item CN(CCn1cnc(-c2cc(C(=O)O)ccn2)c1)c1ccc(Cl)cc1 [Example 87]
# output 100 to 1000 nM

# input # IC50 lookup, item CNC(=O)c1cccc(-c2c(-c3cc(C(=O)O)ccn3)ncn2C)c1 [Example 10]
# output 1000 to 10000 nM

# input # IC50 lookup, item CC(c1ccccc1Cl)n1cnc(-c2cc(-c3nn[nH]n3)ccn2)c1 (stereo not shown) [Example 157]
# output 1000 to 10000 nM

# input # IC50 lookup, item COc1cc(-c2c(-c3cc(C(=O)O)ccn3)ncn2C)ccc1Cl [Example 30]
# output 100 to 1000 nM

# input # IC50 lookup, item Cc1cc(Cl)ccc1-c1c(-c2cc(C(=O)O)ccn2)ncn1C [Example 26]
# output 1000 to 10000 nM

# input # IC50 lookup, item CN1CCOC(Cn2cnc(-c3cc(C(=O)O)ccn3)c2)C1 (stereo not shown) [Example 54]
# output ≤ 100 nM

# input # IC50 lookup, item Cn1cnc(-c2cc(C(=O)O)ccn2)c1-c1ccc(F)cc1OCC1CC1 [Example 120]
# output 1000 to 10000 nM

# input # IC50 lookup, item Clc1cccc(Cl)c1Cn1cnc(-c2cc(-c3nn[nH]n3)ccn2)c1 [Example 151]
# output 1000 to 10000 nM

# input # IC50 lookup, item O=C(O)c1ccnc(-c2ncn(CC3CC3)c2-c2ccc(Cl)cc2)c1 [Example 126]
# output 1000 to 10000 nM

# input # IC50 lookup, item O=C(O)c1ccnc(-c2cn(CC3CCCN3)cn2)c1 (stereo not shown) [Example 53]
# output ≤ 100 nM

# input # IC50 lookup, item O=C(O)c1ccnc(-c2cn(CCNCc3ccccc3C(F)(F)F)cn2)c1 [Example 75]
# output ≤ 100 nM

# input # IC50 lookup, item Cn1cnc(-c2cc(C(=O)O)ccn2)c1-c1cc(F)c(F)cc1OCC1CC1 [Example 121]
# output 1000 to 10000 nM

# input # IC50 lookup, item Cn1cnc(-c2cc(C(=O)O)ccn2)c1-c1ccc2cc[nH]c2c1 [Example 22]
# output 100 to 1000 nM

# input # IC50 lookup, item Cn1cnc(-c2cc(C(=O)O)ccn2)c1-c1ccc(Cl)c(F)c1 [Example 29]
# output 100 to 1000 nM

# input # IC50 lookup, item Cn1cnc(-c2cc(C(=O)O)ccn2)c1-c1ccc(Cl)cc1 [Example 19]
# output 100 to 1000 nM
